Test system: plum curculio
test.details: Initial insecticidal activity, plum curculio
Assay type: in vivo, Conotrachelus nenuphar (Herbst)
run.parameters: Conotrachelus nenuphar, 39 ppm, 48-hour exposure, read-out: % Kill, Plum Curculio
reported.endpoint: mortality at 39 ppm (%)
Numeric only. Scale: %

Jot down mortality at 39 ppm (plum curculio) of CCCOP(=O)(OCCC)N(CCC)SN(C)C(=O)Oc1cccc2c1OC(C)(C)C2 [3(c)] . 5

----------
Test system: southern armyworm
test.details: Systemic insecticidal activity (soil/water), southern armyworm
Type: in vivo, Spodoptera eridania (Cramer)
run.parameters: Spodoptera eridania, 39 ppm, 48-hour exposure, read-out: % Kill, Southern Armyworm
reported.endpoint: mortality at 39 ppm (%)
Numeric only. Scale: %

Sample records with mortality at 39 ppm:
• CCCN(SN(C)C(=O)Oc1cccc2c1OC(C)(C)C2)P(=O)(Oc1ccccc1)Oc1ccccc1 = 0
• CCOP(=O)(OCC)N(CC)SN(C)C(=O)Oc1cccc2c1OC(C)(C)C2 = 20
• CCN(SN(C)C(=O)Oc1cccc2c1OC(C)(C)C2)P(=O)(OC)OC = 60
• CCCOP(=O)(OCCC)N(CCC)SN(C)C(=O)Oc1cccc2c1OC(C)(C)C2 = 0

# ---- query molecule ----
Jot down mortality at 39 ppm (southern armyworm) of CCCN(SN(C)C(=O)Oc1cccc2c1OC(C)(C)C2)P(=O)(OCC)OCC . 0

----------
Tested on: twospotted spider mite
test.details: Seven-day residual insecticidal activity, twospotted spider mite
Type: in vivo, Tetranychus urticae Koch
run.parameters: Tetranychus urticae, 39 ppm, 48-hour exposure, read-out: % Kill, Twospotted Spider Mite
reported.endpoint: mortality at 39 ppm

Sample records with mortality at 39 ppm:
* CCOP(=O)(OCC)N(CC)SN(C)C(=O)Oc1cccc2c1OC(C)(C)C2 | 0%
* CCCOP(=O)(OCCC)N(C)SN(C)C(=O)Oc1cccc2c1OC(C)(C)C2 | 0%
* CCCN(SN(C)C(=O)Oc1cccc2c1OC(C)(C)C2)P(=O)(Oc1ccccc1)Oc1ccccc1 | 1%
* CCCOP(=O)(OCCC)N(CCC)SN(C)C(=O)Oc1cccc2c1OC(C)(C)C2 | < 1%

# ---- query compound ----
Jot down mortality at 39 ppm (twospotted spider mite) of CCOP(=O)(OCC)N(C)SN(C)C(=O)Oc1cccc2c1OC(C)(C)C2 . 2%

----------
Tested on: twospotted spider mite
test.details: Systemic insecticidal activity (soil/water), twospotted spider mite
Assay type: in vivo, Tetranychus urticae Koch
run.parameters: Tetranychus urticae, 156 ppm, 48-hour exposure, read-out: % Kill, Twospotted Spider Mite
Respond with Met for mortality at 156 ppm values of 8% and above, Not met for values below.

Previously resolved entries follow.
* CCOP(=O)(OCC)N(CCc1ccccc1)SN(C)C(=O)Oc1cccc2c1OC(C)(C)C2 | Not met
* CCCN(SN(C)C(=O)Oc1cccc2c1OC(C)(C)C2)P(=O)(OCC)OCC | Not met
* CCN(SN(C)C(=O)Oc1cccc2c1OC(C)(C)C2)P(=O)(OC)OC | Met
* CCCOP(=O)(OCCC)N(CCC)SN(C)C(=O)Oc1cccc2c1OC(C)(C)C2 | Not met

Hi, just wondering whether CC(C)OP(=O)(OC(C)C)N(C)SN(C)C(=O)Oc1cccc2c1OC(C)(C)C2 shows mortality at 156 ppm of 8% or higher. Met

Hi, just wondering whether CCCOP(=O)(OCCC)N(C)SN(C)C(=O)Oc1cccc2c1OC(C)(C)C2 shows mortality at 156 ppm of 8% or higher. Met

Hi, just wondering whether CCCN(SN(C)C(=O)Oc1cccc2c1OC(C)(C)C2)P(=O)(Oc1ccccc1)Oc1ccccc1 shows mortality at 156 ppm of 8% or higher. Not met

Hi, just wondering whether CCOP(=O)(OCC)N(CC)SN(C)C(=O)Oc1cccc2c1OC(C)(C)C2 shows mortality at 156 ppm of 8% or higher. Met
